Experimental system: human DGKζ (Homo sapiens)
Construct: TVMV protease cleavage site (C); Hexa-His (C); made in house; host or cells: Sf9 insect cells (baculovirus, Bac-to-Bac)
Sequence (Q13574 with tags, fused parts or gaps isoform Q13574-4): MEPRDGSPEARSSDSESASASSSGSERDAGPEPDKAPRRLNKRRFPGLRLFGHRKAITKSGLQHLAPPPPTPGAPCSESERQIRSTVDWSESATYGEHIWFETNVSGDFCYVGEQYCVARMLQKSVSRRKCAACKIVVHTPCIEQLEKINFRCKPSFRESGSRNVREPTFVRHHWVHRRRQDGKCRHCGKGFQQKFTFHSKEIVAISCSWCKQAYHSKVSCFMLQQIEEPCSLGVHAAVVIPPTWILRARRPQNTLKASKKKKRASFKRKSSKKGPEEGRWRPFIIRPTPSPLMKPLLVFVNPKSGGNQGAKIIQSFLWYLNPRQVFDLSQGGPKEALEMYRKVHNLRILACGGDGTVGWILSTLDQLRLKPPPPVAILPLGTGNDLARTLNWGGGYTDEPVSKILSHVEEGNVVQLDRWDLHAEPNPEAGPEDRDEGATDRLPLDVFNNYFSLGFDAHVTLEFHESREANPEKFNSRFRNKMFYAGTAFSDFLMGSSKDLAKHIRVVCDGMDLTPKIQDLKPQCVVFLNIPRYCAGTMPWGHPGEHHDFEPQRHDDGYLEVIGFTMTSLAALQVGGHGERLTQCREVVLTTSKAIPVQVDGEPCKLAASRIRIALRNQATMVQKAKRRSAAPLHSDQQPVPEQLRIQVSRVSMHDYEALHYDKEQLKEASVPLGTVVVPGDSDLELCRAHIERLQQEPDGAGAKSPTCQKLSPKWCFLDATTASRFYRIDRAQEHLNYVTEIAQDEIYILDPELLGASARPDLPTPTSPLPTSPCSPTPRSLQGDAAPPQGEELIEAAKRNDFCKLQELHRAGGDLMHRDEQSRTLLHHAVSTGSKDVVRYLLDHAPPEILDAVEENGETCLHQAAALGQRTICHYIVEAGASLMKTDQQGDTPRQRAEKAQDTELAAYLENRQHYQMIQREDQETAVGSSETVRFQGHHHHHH
Procedure summary: DGKζ LIPGLO assay (extruded liposome substrate), in vitro DGK inhibition
Type: biochemical
Test parameters: DGKζ liposome (LIPGLO) assay; read-out: DGKz LIPGLO IC50
Value kind: pIC50
Schema: pIC50 number; meaning minus log10 of the concentration expressed in molar units.

Check the records and state pIC50 for Cc1cc(C(c2ccc(F)cc2)N2C[C@H](C)N(c3cc(=O)n(C)c4ccc(C#N)nc34)C[C@H]2C)no1 (single isomer, unassigned) [Example 733]
5.82

Given the compound Cc1ccc(C)c(C(C)N2CCN(c3c(C#N)c(=O)n(C)c4ccc(C#N)nc34)C[C@H]2C)c1 (single isomer, unassigned) [Example 977] , write its reported pIC50.
6.00

State its pIC50: "Cc1cc(CN2CCN(c3c(C#N)c(=O)n(C)c4ccc(C#N)nc34)C[C@H]2C)ccc1F"
5.25

====

Recorded log10(IC50), one value per entry.
Experimental system: human DGKζ (Homo sapiens)
Construct: TVMV protease cleavage site (C); Hexa-His (C); made in house; host or cells: Sf9 insect cells (baculovirus, Bac-to-Bac)
Procedure summary: DGKζ LIPGLO assay (extruded liposome substrate), in vitro DGK inhibition
Type: biochemical
Test parameters: DGKζ liposome (LIPGLO) assay; read-out: DGKz LIPGLO IC50
Please be aware that the numbers have been log10-transformed from IC50 in µM.

Here are 5 compounds together with their reported answers.
>>> value_reported("C[C@@H]1CN(c2cc(=O)n(C)c3ccc(C#N)nc23)[C@@H](C)CN1C(c1ccc(F)cc1)c1nc(-c2ccc(F)cc2)no1 (single isomer, unassigned) [Example 741]")
0.15
>>> value_reported("COC(=O)c1cccc(C(C)N2CCN(c3c(C#N)c(=O)n(C)c4ccc(C#N)nc34)C[C@H]2C)c1 (single isomer, unassigned) [Example 982]")
0.23
>>> value_reported("Cc1ccc(C(C)N2CCN(c3c(C#N)c(=O)n(C)c4ccc(C#N)nc34)C[C@H]2C)cc1 (single isomer, unassigned) [Example 952]")
0.36
>>> value_reported("CCc1ccccc1C(c1ccc(F)cc1)N1C[C@H](C)N(c2c(C#N)c(=O)n(C)c3ccc(C#N)nc23)C[C@H]1C (single isomer, unassigned) [Example 810]")
1.36
>>> value_reported("C[C@@H]1CN(c2c(C#N)c(=O)n(C)c3ccc(C#N)nc23)CCN1C(c1ccc(F)cc1)c1ccccc1F (stereo partly drawn) [Example 882]")
-0.02

Give log10(IC50) for the following compound: Cc1cccc(C(c2ccc(F)cc2)N2C[C@H](C)N(c3c(C#N)c(=O)n(C)c4ccc(C#N)nc34)C[C@H]2C)n1 (stereo partly drawn) [Example 816]
0.49

Find the measured log10(IC50) of C[C@@H]1CN(c2c(C#N)c(=O)n(C)c3ccc(C#N)nc23)[C@@H](C)CN1C(c1ccc(F)cc1)c1ccon1 (single isomer, unassigned) [Example 850] and report it.
0.73

Let me know recorded log10(IC50) for CC(C)c1noc(C(c2ccc(F)cc2)N2C[C@H](C)N(c3cc(=O)n(C)c4ccc(C#N)nc34)C[C@H]2C)n1 (single isomer, unassigned) [Example 747] , thanks.
-1.16

Give the measured log10(IC50) for Cc1ccc(C(c2ncccc2F)N2CCN(c3c(C#N)c(=O)n(C)c4ccc(C#N)nc34)C[C@H]2C)cc1 (single isomer, unassigned) [Example 892]
0.11

Specify log10(IC50) for "C[C@@H]1CN(c2c(C#N)c(=O)n(C)c3ccc(C#N)nc23)CCN1Cc1cccc(-c2ccccc2)c1" and stop.
1.04

Indicate its recorded log10(IC50); the compound in question is Cc1ccc(C(c2ccc(Cl)cc2)N2CCN(c3c(C#N)c(=O)n(C)c4ccc(C#N)nc34)C[C@H]2C)cc1 (single isomer, unassigned) [Example 944]
1.61

Supply reported log10(IC50) belonging to this compound: "C[C@@H]1CN(c2c(C#N)c(=O)n(C)c3ccc(C#N)nc23)CCN1Cc1cccc(C(F)(F)F)c1"
0.59
